Taken from patent US10633397B2.

Biological target: cap-dependent endonuclease (RNP fraction, PB1-PB2-PA complex) (Influenza A virus, UniProt P15659)
Test: Measurement of cap-dependant endonuclease (CEN) inhibitory activity
Details: RNP from A/WSN/33 virus, room temperature 60 minutes; read-out: CEN_IC50
With a cut-off of 3 nM, any IC50 strictly below it is called condition met; any IC50 meeting it or above is called condition not met.

As a guide, the following entries are already answered.
{"molecule": "C[C@@H]1CC[C@@H]2N(C1)C(=O)c1c(O)c(=O)ccn1N2[C@@H]1c2ccccc2SCc2c1ccc(F)c2F [III-42]", "assignedCategory": "condition not met"}
{"molecule": "C[C@H]1CN2C(=O)c3c(O)c(=O)ccn3N([C@H]3c4ccc(F)cc4CSc4ccccc43)[C@@H]2CO1 [III-52]", "assignedCategory": "condition not met"}

Input: is_below(IC50, 3 nM) for O=C1c2c(O)c(=O)ccn2N([C@@H]2c3ccccc3SCc3c(Cl)cccc32)[C@@H]2COCCN12 [III-4] ?
Output: condition met

Input: is_below(IC50, 3 nM) for O=C1c2c(O)c(=O)ccn2N([C@H]2c3ccc(F)cc3CSc3ccccc32)[C@@H]2COCCN12 [III-3] ?
Output: condition met

Input: is_below(IC50, 3 nM) for O=C1c2c(O)c(=O)ccn2N([C@@H]2c3ccccc3SCc3c2ccc(F)c3F)[C@@H]2C[C@@H](C(F)(F)F)CCN12 [III-26] ?
Output: condition met

Input: is_below(IC50, 3 nM) for C[C@@H]1CCN2C(=O)c3c(O)c(=O)ccn3N([C@@H]3c4ccccc4SCc4c3ccc(F)c4F)[C@@H]2C1 [III-41] ?
Output: condition met

Input: is_below(IC50, 3 nM) for CC1(C)CC[C@@H]2N(C1)C(=O)c1c(O)c(=O)ccn1N2[C@@H]1c2ccccc2SCc2c1ccc(F)c2F [III-35] ?
Output: condition not met

Input: is_below(IC50, 3 nM) for O=C1c2c(O)c(=O)ccn2N([C@@H]2c3cccc(Cl)c3SCc3cccc(F)c32)[C@@H]2COCCN12 [III-16] ?
Output: condition not met

###

Experiment: physchem
Format: physicochemical
Conditions: pH 6.8, fassgf or other biorelevant, thermodynamic from solid; 20 mmol/L TCA/JP-2 solution, 1 hour at 37° C.
assayEndpoint: solubility (µg/mL)
// return numeric value only (unit: µg/mL, not printed)

Input: # return recorded solubility for input O=C1c2c(O)c(=O)ccn2N([C@@H]2c3ccccc3SCc3c2ccc(F)c3F)[C@@H]2COCCN12 [III-2]
Output: 16.1

###

Assay: in vivo
Conditions: oral vs intravenous administration, mice or SD rats, read-out: bioavailability (BA)
Below: a set of entries, each annotated with reported bioavailability.
// return numeric value only (unit: %, not printed)

{"compound": "COC(=O)OCOc1c2n(ccc1=O)N([C@@H]1c3ccccc3SCc3c1ccc(F)c3F)[C@@H]1COCCN1C2=O [II-6]", "bioavailability [%]": 14.9}

Input: # return recorded bioavailability for input O=C1c2c(O)c(=O)ccn2N([C@@H]2c3ccccc3SCc3c2ccc(F)c3F)[C@@H]2COCCN12 [III-2]
Output: 4.2

###

Test: in vivo
Settings: rat, SD rats, intravenous administration, read-out: total body clearance (CLtot)
assayEndpoint: clearance (mL/min/kg)
// return numeric value only (unit: mL/min/kg, not printed)

Input: # return recorded clearance for input O=C1c2c(O)c(=O)ccn2N([C@@H]2c3ccccc3SCc3c2ccc(F)c3F)[C@@H]2COCCN12 [III-2]
Output: 16.4
